- assayed-system: T1, O. sativa 14-3-3 Protein Homolog GF14-c, bait fragment aa 1-150 (Oryza sativa, UniProt Q6ZKC0 1-150)
- T1 construct: bait; also called OsGF14-c; PN12464
- T1 sequence: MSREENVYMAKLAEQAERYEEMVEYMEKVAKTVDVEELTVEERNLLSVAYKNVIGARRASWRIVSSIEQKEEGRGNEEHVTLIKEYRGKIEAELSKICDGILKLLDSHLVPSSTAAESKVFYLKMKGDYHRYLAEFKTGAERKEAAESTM
- assay-procedure: yeast two-hybrid
test-readout: binding result

1) Novel Protein PN30846 (putative dynamin homolog), prey clone aa 1-266 (other, prey; AD fusion; input trait library; also called OsPN30846) APRRPSTFLNAVALGNVGAGKSAVLNSLIGHPVLPTGENGATRAPIVVDLQRDPGLSSKSIVLQIDSKSQRVSASSLRHSLQDRLSKGASSGSSRGRVEGINLKLRTSTAPPLKLVDLPGIDQRAVDDPMINEYAGHNDAILLVVIPAMQAADVASSRALRLAKDIDADGTRTVGVISKVDQAEGDAKTIACVQALLLNKGPKNLPDIEWVALIGQSVAIASAQAAGSENSLETAWNAEAETLRSILTGAPKSKLGRIALVDTIAK    binds
2) O. sativa Ribulose Bisphosphate Carboxylase/Oxygenase Activase, Large Isoform A1, prey clone aa 68-210 (enzyme, prey; AD fusion; input trait library; also called OsRCAA1; PN19842) DISDDQQDITRGKGFVDSLFQAPTGDGTHEAVLSSYEYLSQGLRTYDFDNTMGGFYIAPAFMDKLVVHISKNFMTLPNIKVPLILGIWGGKGQGKSFQCELVFAKMGINPIMMSAGELESGNAGEPAKLIRQRYREAADIIKK    binds
3) Hypothetical Protein OsContig3864, Similar to H. vulgare Photosystem I Reaction Center Subunit II, Chloroplast Precursor, prey clone aa 94-203 (other, prey; AD fusion; input trait library; also called OsPN23061) VITWTSPKEQVFEMPTGGAAIMREGPNLLKLARKEQCLALGTRLRSKYKINYQFYRVFPNGEVQYLHPKDGVYPEKVNAGRQGVGQNFRSIGKNVSPIEVKFTGKNVFDI    binds
